koff reference
# Experimental System: T1, recombinant human LAG-3-his protein (Novoprotein) (human, UniProt P18627 23-450)
# T1 construct: Bought; also called huLAG-3; not shown: His tag
# T1 sequence (looked up): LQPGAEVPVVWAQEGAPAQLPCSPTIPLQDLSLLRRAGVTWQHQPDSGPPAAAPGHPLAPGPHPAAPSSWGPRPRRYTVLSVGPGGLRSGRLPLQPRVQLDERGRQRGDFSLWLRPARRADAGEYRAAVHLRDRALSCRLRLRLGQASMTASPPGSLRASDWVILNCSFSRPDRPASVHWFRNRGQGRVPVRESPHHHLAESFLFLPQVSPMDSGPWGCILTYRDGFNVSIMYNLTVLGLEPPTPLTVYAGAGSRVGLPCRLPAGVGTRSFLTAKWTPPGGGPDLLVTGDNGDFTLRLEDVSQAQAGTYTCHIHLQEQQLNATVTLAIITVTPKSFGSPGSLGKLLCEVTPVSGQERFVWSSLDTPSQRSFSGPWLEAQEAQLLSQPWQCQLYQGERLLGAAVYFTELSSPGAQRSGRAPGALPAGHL
# Run Description: BLI Octet, Ab on AHC sensor, huLAG-3-his; test group 1
Give a bare numeral; the unit s⁻¹ is implied.

Known results for binders:
INSERT INTO assay_data (binder, measured_endpoint, recorded_measurement) VALUES
  ('HumAb747V-64 (antibody, human IgG1, V domains shown, engineered HumAb747-60 variant; human IgG1/kappa constant domains) VH: EVQLVQSGAEVKKPGATVKLSCTASGFNIKDDYMHWVKQRPEQGLDWIGWIVPRNGNTMYASKFQGKATITADTSTNTAYLELSSLRSEDTAVYYCTVYGDYWGQGTTVTVSS VL: DIQMTQSPSSLSASVGDRVTITCRASQEISGYLSWLQQKPGGAIKRLIYAASALDLGVPSRFSGSRSGSDYTLTISSLQPEDFADYYCLQYASYPLTFGQGTKLELK', 'koff', 0.00045),
  ('HumAb747V-65 (antibody, human IgG1, V domains shown, engineered HumAb747-60 variant; human IgG1/kappa constant domains) VH: EVQLVQSGAEVKKPGATVKLSCTASGFNIKDDYMHWVKQRPEQGLDWIGWIVPRNGNTMYASKFQGKATITADTSTNTAYLELSSLRSEDTAVYYCTVYGDYWGQGTTVTVSS VL: DIQMTQSPSSLSASVGDRVTITCRASQEISGYLSWLQQKPGGAIKRLIYAASTLDSGVPSRFSGSRSGSDYTLTISSLQPEDFADYYCLQYASYPLTFGQGTKLELK', 'koff', 0.000292);

Recorded koff of HumAb747V-61 (antibody, human IgG1, V domains shown, human IgG1/kappa constant domains) VH: EVQLVQSGAEVKKPGATVKLSCTASDFNIKDDYMHWVKQRPEQGLDWIGWIVPENANTEYASKFQGKATITADTSTNTAYLELSSLRSEDTAVYYCTVYGDYWGQGTTVTVSS VL: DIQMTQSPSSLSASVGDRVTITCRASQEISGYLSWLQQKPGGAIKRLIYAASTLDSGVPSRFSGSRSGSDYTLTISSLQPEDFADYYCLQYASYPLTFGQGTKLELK , please.
0.000686
